B1: PSD2 (parent)
chain: PLMGETQERERVLTHFSRRYCQCN

Variants of: B1
assay_method_text: protein stability index of a GFP-peptide fusion (GPS, HEK-293T) (PSI 1-6); higher = more stable;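 also: lentivirally expressed fusions sorted by FACS into six bins by GFP to DsRed ratio, PSI derived from sequencing read proportions per bin multiplied by bin number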
test_context: c terminus: a fixed tail appended
Entries and their measured protein stability index follow.
reported_metric: protein stability index

{"variant_id": "Q7R", "reported_metric": "protein stability index", "readout_value": 2.26}
{"variant_id": "Q7S", "reported_metric": "protein stability index", "readout_value": 3.11}
{"variant_id": "F16G", "reported_metric": "protein stability index", "readout_value": 3.84}
{"variant_id": "G4S", "reported_metric": "protein stability index", "readout_value": 2.92}
{"variant_id": "M3Y", "reported_metric": "protein stability index", "readout_value": 2}
{"variant_id": "L13K", "reported_metric": "protein stability index", "readout_value": 3.57}
{"variant_id": "E5L", "reported_metric": "protein stability index", "readout_value": 2.08}
{"variant_id": "P1I", "reported_metric": "protein stability index", "readout_value": 2.04}
{"variant_id": "P1Y", "reported_metric": "protein stability index", "readout_value": 3.12}
